Tested on: P388 leukemia ip, CD2F1 mice, survival T/C
Assay: NCI In Vivo Anticancer Drug Screen. Data for tumor model P388 Leukemia (intraperitoneal) in CD2F1 (CDF1) mice
Conditions: endpoint: median survival time; dose: 100.0 mg/kg/injection; schedule: Q01DX009 (ip); vehicle: saline with Tween-80; higher = longer survival
Inconclusive results and toxic doses are left out.
Could you please report measured T/C for the items listed next?

Study these solved cases before continuing.
>  <MOLECULE>
CCOc1cccc(Cl)n1

>  <RESULT>
100 % of control

$$$$
>  <MOLECULE>
CC[As](CCO)SC1CC(OC(=O)c2ccccc2)C(OC(=O)c2ccccc2)C(COC(=O)c2ccccc2)O1 (stereo not given)

>  <RESULT>
110 % of control

$$$$
>  <MOLECULE>
COc1cccc(OC)c1OCCBr

>  <RESULT>
98 % of control

$$$$
>  <MOLECULE>
CN(C=O)S(C)(=O)=O

>  <RESULT>
100 % of control

$$$$
>  <MOLECULE>
O=[N+]([O-])c1ccc(OCCSc2ccccc2)cc1

>  <RESULT>
98 % of control

$$$$
>  <MOLECULE>
COc1cc2ccc(CC(N)=O)cc2cc1OC

>  <RESULT>
118 % of control

$$$$
>  <MOLECULE>
O=[n+]1c2c(n([O-])c3ccccc31)CCCCCC2

>  <RESULT>
99 % of control

$$$$
>  <MOLECULE>
O=C1c2ccccc2CN1Cc1ccc(Cl)c(Cl)c1

>  <RESULT>
89 % of control

$$$$

Each molecule below has a reported value. Please supply its T/C.
1. CCOC(=O)/C(C#N)=C/Nc1ccncc1
2. CC(=O)/C=C/c1ccc(O)cc1
3. CCOCC1COc2c(cc3[nH]cc(C(=O)OCC)c(=O)c3c2Cl)O1 (stereo not given)
4. CCCCCCOC(=O)c1ccc(I)cc1
5. CC(O)C(NC(=O)c1ccccc1)C(=O)O (stereo not given)
6. O=C(CNC(=O)Nc1ccc(Cl)c(Cl)c1)N/N=C/c1ccc2c(c1)OCO2

Reply |
87 % of control
98 % of control
110 % of control
93 % of control
95 % of control
90 % of control
